Tested on: Renilla luciferase (RLuc)
Assay: normalised percent inhibition of luminescence (vs positive and negative controls); higher = stronger inhibition
Conditions: metal salt concentration 0.0001 mM; 100 mM HEPES buffer
Measured Metric: normalised percent inhibition

[Cl][Fe][Cl] [iron(II) chloride]
-50%

So what's the measured normalised percent inhibition for this one? O=[N+]([O-])[O-].O=[N+]([O-])[O-].[Cd+2] [cadmium nitrate]
-40.7%

So what's the measured normalised percent inhibition for this one? O=[N+]([O-])[O-].[Ag+] [silver nitrate]
2.89%

So what's the measured normalised percent inhibition for this one? O=S(=O)([O-])[O-].[Fe+2] [iron(II) sulfate]
41.8%

So what's the measured normalised percent inhibition for this one? O=[N+]([O-])[O-].O=[N+]([O-])[O-].[Cu+2] [copper(II) nitrate]
-51.9%

====

Test system: NanoLuc luciferase (NLuc)
Assay: normalised percent inhibition of luminescence (vs positive and negative controls); higher = stronger inhibition
Details: metal salt concentration 0.0001 mM; 100 mM HEPES buffer
The entries below come with measured normalised percent inhibition values attached.
The response must be a number in % with no trailing unit.

O.O.O.O.O.O.O.O=S(=O)([O-])[O-].[Mg+2] [magnesium sulfate]
6.62

So what's the measured normalised percent inhibition for this one? [Cl][Fe][Cl] [iron(II) chloride]
-0.558

So what's the measured normalised percent inhibition for this one? O=[N+]([O-])[O-].[Ag+] [silver nitrate]
1.65

So what's the measured normalised percent inhibition for this one? O=S(=O)([O-])[O-].[Fe+2] [iron(II) sulfate]
-2.4

So what's the measured normalised percent inhibition for this one? [Cl][Pt-2]([Cl])([Cl])[Cl].[K+].[K+] [potassium tetrachloroplatinate(II)]
1.21

So what's the measured normalised percent inhibition for this one? O=[N+]([O-])[O-].O=[N+]([O-])[O-].[Cd+2] [cadmium nitrate]
-0.809

So what's the measured normalised percent inhibition for this one? O=[N+]([O-])[O-].O=[N+]([O-])[O-].[Cu+2] [copper(II) nitrate]
-0.372

So what's the measured normalised percent inhibition for this one? CC#N.CC#N.CC#N.CC#N.F[B-](F)(F)F.[Cu+] [tetrakis(acetonitrile)copper(I) tetrafluoroborate]
2.08

So what's the measured normalised percent inhibition for this one? [Cl][Sn][Cl] [tin(II) chloride]
-1.04

So what's the measured normalised percent inhibition for this one? [Cl][Fe]([Cl])[Cl] [iron(III) chloride]
-1.25

====

System: NanoLuc luciferase (NLuc)
Test: normalised percent inhibition of luminescence (vs positive and negative controls); higher = stronger inhibition
Details: metal salt concentration 0.5 mM; screening conditions buffer
Measured Metric: normalised percent inhibition (%)
The response must be a number in % with no trailing unit.

[Cl][Sn][Cl] [tin(II) chloride]
8.42

# returns recorded normalised percent inhibition (system: NanoLuc luciferase (NLuc)) for O=[N+]([O-])[O-].O=[N+]([O-])[O-].[Cu+2] [copper(II) nitrate]
137

# returns recorded normalised percent inhibition (system: NanoLuc luciferase (NLuc)) for O=[N+]([O-])[O-].O=[N+]([O-])[O-].[Pb+2] [lead(II) nitrate]
15.7

====

Tested on: Renilla luciferase (RLuc)
Experiment: normalised percent inhibition of luminescence (vs positive and negative controls); higher = stronger inhibition
Details: metal salt concentration 0.002 mM; screening conditions buffer
Measured Metric: normalised percent inhibition (%)
The response must be a number in % with no trailing unit.

Examples from the recorded data:
O=[N+]([O-])[O-].O=[N+]([O-])[O-].[Cu+2] [copper(II) nitrate]
-3.55
CC#N.CC#N.CC#N.CC#N.F[B-](F)(F)F.[Cu+] [tetrakis(acetonitrile)copper(I) tetrafluoroborate]
12.9

So what's the measured normalised percent inhibition for this one? [Cl][Sn][Cl] [tin(II) chloride]
2.49

So what's the measured normalised percent inhibition for this one? [Cl][Fe]([Cl])[Cl] [iron(III) chloride]
0.819

So what's the measured normalised percent inhibition for this one? O=[N+]([O-])[O-].O=[N+]([O-])[O-].[Cd+2] [cadmium nitrate]
-8.95

So what's the measured normalised percent inhibition for this one? O=[N+]([O-])[O-].O=[N+]([O-])[O-].[Pb+2] [lead(II) nitrate]
-20.9

So what's the measured normalised percent inhibition for this one? O=[N+]([O-])[O-].O=[N+]([O-])[O-].[Zn+2] [zinc nitrate]
-5.83
